Numbers sourced from patent US9353090B2.

Assay: physchem
Conditions: pH 4.5, aqueous buffer, kinetic from dmso stock, Solubility (pH 4.5)
# reported solubility at 24 h; entries follow
State just the number; it will be interpreted in µg/mL.

Query: Given the entry COc1cc(COc2c(C)cccc2-c2csc(N3CC[C@H](C(=O)O)[C@H](OC)C3)n2)cc2c1CN(C1CCOCC1)CC2 , report its measured solubility at 24 h.
Response: 100

----------
Assay: physchem
Details: pH 4.5, aqueous buffer, kinetic from dmso stock, Solubility (pH 4.5)
measured-metric: solubility at 24 h (mg/mL)
State just the number; it will be interpreted in mg/mL.

{"molecule": "Cc1ccc(OCc2ccc3c(c2C)CCN(C2COC2)C3)c(-c2cccc(N3CC[C@@]4(C(=O)O)C[C@H]4C3)n2)c1", "solubility at 24 h / mg/mL": 0.082}
{"molecule": "CO[C@H]1CN(c2nc(-c3cccc(C)c3OCc3cc(C)c4c(c3)CCN(C3CCOCC3)CC4)cs2)CC[C@H]1C(=O)O", "solubility at 24 h / mg/mL": 0.0805}
{"molecule": "Cc1ccc(OCc2ccc3c(c2C)CCN(C2CCCOC2)CC3)c(-c2csc(N3CC[C@@]4(C(=O)O)C[C@H]4C3)n2)c1 (stereo partly drawn)", "solubility at 24 h / mg/mL": 0.0085}

Query: Given the entry CO[C@H]1CN(c2nc(-c3cc(C)ccc3OCc3ccc4c(c3C)CCN(C3CCOCC3)C4=O)cs2)CC[C@H]1C(=O)O , report its measured solubility at 24 h.
Response: 0.0001

Query: Given the entry CO[C@@H]1CN(c2cccc(-c3cccc(C)c3OCc3ccc4c(c3C)CCN(C3COC3)CC4)n2)CC[C@@H]1C(=O)O , report its measured solubility at 24 h.
Response: 0.114

Query: Given the entry COC[C@H]1N(c2cccc(-c3cccc(C)c3OCc3ccc4c(c3)CN(C3CCOCC3)CC4)n2)C[C@@H]2C[C@@]21C(=O)O , report its measured solubility at 24 h.
Response: 0.145

----------
Assay: physchem
Details: pH 2.2, aqueous buffer, kinetic from dmso stock, Solubility (pH 2.2)
# reported solubility at 24 h; entries follow
State just the number; it will be interpreted in µg/mL.

// worked examples, solubility at 24 h included
{"structure-smiles": "COCc1cc(COc2c(C)cccc2-c2cccc(N3CC[C@H](C(=O)O)[C@H](OC)C3)n2)cc2c1CN(C1COC1)CC2", "measurement-unit": "µg/mL", "solubility at 24 h": 146}
{"structure-smiles": "Cc1cc(COc2c(C)cccc2-c2csc(N3C[C@H]4C[C@@]4(C(=O)O)[C@@H]3C)n2)cc2c1CN(C1COC1)CC2", "measurement-unit": "µg/mL", "solubility at 24 h": 94}

Please look at the following compound next.
Query: Given the entry COC[C@H]1N(c2nc(-c3cc(C)ccc3OCc3ccc4c(c3C)CCN(C3CCOCC3)C4)cs2)C[C@@H]2C[C@@]21C(=O)O , report its measured solubility at 24 h.
Response: 120

----------
Assay: physchem
Details: pH 2.2, aqueous buffer, kinetic from dmso stock, Solubility (pH 2.2)
# reported solubility at 24 h; entries follow
State just the number; it will be interpreted in µg/mL.

// worked examples, solubility at 24 h included
{"structure-smiles": "CO[C@@H]1CN(c2cccc(-c3cccc(C)c3OCc3cc(C)c4c(c3)CCN(C3CCOCC3)C4)n2)CC[C@H]1C(=O)O", "measurement-unit": "µg/mL", "solubility at 24 h": 134}
{"structure-smiles": "CO[C@@H]1CN(c2nc(-c3cccc(C)c3OCc3cc(F)c4c(c3)CCN(C3CCOCC3)CC4)cs2)CC[C@@H]1C(=O)O", "measurement-unit": "µg/mL", "solubility at 24 h": 118}

Query: Given the entry CO[C@H]1CN(c2nc(-c3cccc(C)c3OCc3ccc4c(c3C)CCN(C3CCOCC3)C4)cs2)CC[C@H]1C(=O)O , report its measured solubility at 24 h.
Response: 120

Query: Given the entry COc1cc(COc2ccc(C)cc2-c2csc(N3CC[C@@H](C(=O)O)[C@@H](OC)C3)n2)cc2c1CN(C1CCOCC1)CC2 , report its measured solubility at 24 h.
Response: 118

Query: Given the entry CO[C@H]1CN(c2nc(-c3cccc(C)c3OCc3cc(F)c4c(c3)CCN(C3CCOCC3)C4)cs2)CC[C@H]1C(=O)O , report its measured solubility at 24 h.
Response: 130

Query: Given the entry CO[C@H]1CN(c2nc(-c3cccc(C)c3OCc3ccc4c(c3)C(C)(C)CN(C3CCOCC3)CC4)cs2)CC[C@H]1C(=O)O , report its measured solubility at 24 h.
Response: 131

----------
Assay: physchem
Settings: pH 2.2, aqueous buffer, kinetic from dmso stock, Solubility (pH 2.2)
# reported solubility at 24 h; entries follow
State just the number; it will be interpreted in µg/mL.

// worked examples, solubility at 24 h included
{"compound": "Cc1ccc(OCc2cc(C)c3c(c2)CCN(C2COC2)C3)c(-c2cccc(N3C[C@@H]4C[C@]4(C(=O)O)C3)n2)c1", "measured-metric": "solubility at 24 h", "reported-result": 100}
{"compound": "COC[C@H]1N(c2cccc(-c3cccc(C)c3OCc3cc4c(c(OC)c3)CN(C3CCOCC3)CC4)n2)C[C@@H]2C[C@@]21C(=O)O", "measured-metric": "solubility at 24 h", "reported-result": 120}
{"compound": "CO[C@H]1CN(c2cccc(-c3cc(C)ccc3OCc3ccc4c(c3)CCN(C3CCOCC3)C4)n2)CC[C@H]1C(=O)O", "measured-metric": "solubility at 24 h", "reported-result": 130}
{"compound": "Cc1ccc(OCc2cc(C)c3c(c2C)CCN(C2CCOC2)C3)c(-c2csc(N3CC[C@@]4(C(=O)O)C[C@H]4C3)n2)c1 (stereo partly drawn)", "measured-metric": "solubility at 24 h", "reported-result": 120}

Query: Given the entry COC[C@H]1N(c2nc(-c3cccc(C)c3OCc3ccc4c(c3C)CCN(C3CCC3)C4)cs2)C[C@@H]2C[C@@]21C(=O)O , report its measured solubility at 24 h.
Response: 120

Query: Given the entry CO[C@@H]1CN(c2cccc(-c3cccc(C)c3OCc3cc(C)c4c(c3)CCN(C3COC3)CC4)n2)CC[C@@H]1C(=O)O , report its measured solubility at 24 h.
Response: 128

----------
Test: physchem
Details: pH 4.5, aqueous buffer, kinetic from dmso stock, Solubility (pH 4.5)
# if value of solubility at 24 h reaches 80 µg/mL, tag MET; if it stays below, tag NOT MET

{"compound": "Cc1ccc(OCc2ccc3c(c2C)CCN(C2CCOCC2)CC3)c(-c2cccc(N3C[C@@H]4C[C@]4(C(=O)O)C3)n2)c1 [Compound 41]", "category": "MET"}

Query: Could you please find out whether CO[C@H]1CN(c2cccc(-c3cc(C)ccc3OCc3ccc4c(c3C)CCN(C3CCOCC3)C4)n2)CC[C@H]1C(=O)O [Compound 71] has solubility at 24 h that meets 80 µg/mL or exceeds it?
Response: MET

Query: Could you please find out whether CCO[C@@H]1CN(c2cccc(-c3cccc(Cl)c3OCc3cc(C)c4c(c3)CCN(C3CCOCC3)C4)n2)CC[C@@H]1C(=O)O [Compound 259] has solubility at 24 h that meets 80 µg/mL or exceeds it?
Response: MET

Query: Could you please find out whether COC[C@H]1N(c2nccc(-c3cccc(C)c3OCc3cc(C)c4c(c3)CCN(C3CCOCC3)C4)n2)CC2C[C@@]21C(=O)O (stereo partly drawn) [Compound 237] has solubility at 24 h that meets 80 µg/mL or exceeds it?
Response: MET

Query: Could you please find out whether Cc1cccc(-c2csc(N3C[C@@H]4C[C@]4(C(=O)O)C3)n2)c1OCc1cc(C#N)c2c(c1)CCN(C1CCOCC1)C2 [Compound 142] has solubility at 24 h that meets 80 µg/mL or exceeds it?
Response: NOT MET

----------
Molecular target: human soluble guanylate cyclase alpha 1 and beta 1 subunits (sGC) (Homo sapiens (Human), UniProt Q02108+Q02153)
Sequence (Q02108 whole entry partner): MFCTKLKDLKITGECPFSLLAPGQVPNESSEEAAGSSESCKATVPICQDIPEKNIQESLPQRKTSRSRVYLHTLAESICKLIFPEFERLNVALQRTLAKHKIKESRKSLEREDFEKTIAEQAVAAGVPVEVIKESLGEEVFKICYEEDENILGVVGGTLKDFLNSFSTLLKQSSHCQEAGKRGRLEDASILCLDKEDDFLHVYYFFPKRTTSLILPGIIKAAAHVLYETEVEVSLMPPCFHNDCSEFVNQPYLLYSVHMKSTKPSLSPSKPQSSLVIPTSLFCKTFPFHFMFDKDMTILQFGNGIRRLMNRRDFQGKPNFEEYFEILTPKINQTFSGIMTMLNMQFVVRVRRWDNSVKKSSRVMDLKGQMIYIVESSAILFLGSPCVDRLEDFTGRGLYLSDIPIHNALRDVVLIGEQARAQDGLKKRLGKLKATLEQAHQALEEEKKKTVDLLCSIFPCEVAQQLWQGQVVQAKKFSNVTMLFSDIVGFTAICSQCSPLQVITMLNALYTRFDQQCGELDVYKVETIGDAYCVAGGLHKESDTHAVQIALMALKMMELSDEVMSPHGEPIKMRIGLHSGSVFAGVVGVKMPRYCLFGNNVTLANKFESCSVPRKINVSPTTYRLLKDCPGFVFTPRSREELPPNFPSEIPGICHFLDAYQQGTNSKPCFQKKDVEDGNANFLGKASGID
Sequence (Q02153 whole entry): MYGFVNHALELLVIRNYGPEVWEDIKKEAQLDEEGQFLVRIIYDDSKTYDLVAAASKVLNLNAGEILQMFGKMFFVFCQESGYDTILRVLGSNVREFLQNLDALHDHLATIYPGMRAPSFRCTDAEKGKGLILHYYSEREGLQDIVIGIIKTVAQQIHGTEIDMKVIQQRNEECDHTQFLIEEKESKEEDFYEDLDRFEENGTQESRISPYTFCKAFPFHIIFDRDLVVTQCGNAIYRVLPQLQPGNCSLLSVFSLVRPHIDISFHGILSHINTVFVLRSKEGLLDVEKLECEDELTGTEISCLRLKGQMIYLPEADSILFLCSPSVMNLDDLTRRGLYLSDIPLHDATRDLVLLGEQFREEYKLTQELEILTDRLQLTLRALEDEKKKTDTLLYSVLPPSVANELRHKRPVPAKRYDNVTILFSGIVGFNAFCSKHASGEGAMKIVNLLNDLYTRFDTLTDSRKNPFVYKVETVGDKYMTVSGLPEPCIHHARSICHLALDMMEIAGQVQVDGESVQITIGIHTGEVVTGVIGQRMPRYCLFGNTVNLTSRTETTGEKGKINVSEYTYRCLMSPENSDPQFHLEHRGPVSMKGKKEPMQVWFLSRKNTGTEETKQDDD
Test: sGC cellular activator assay (cGMP, HTRF), in the presence and absence of 50% human serum
Conditions: CHO cells stably expressing human sGC alpha 1/beta 1, preincubated with 40 microM ODQ; cGMP by HTRF; Table 2 does not state whether with or without 50% human serum
pEC50: −log10 of the molar value.
# if value of pEC50 reaches 8, tag 1.0; if it stays below, tag 0.0

Before answering, review these 6 worked examples.
{"molecule": "Cc1nccnc1C(C)N1CCc2c(ccc(COc3ccccc3-c3cccc(N4CC[C@@]5(C(=O)O)C[C@H]5C4)n3)c2C)C1 (stereo partly shown)", "category": 0.0}
{"molecule": "Cc1cccc(-c2cccc(N3CC[C@H](C(=O)O)[C@@H]4OCCC[C@H]43)n2)c1OCc1ccc2c(c1C)CCN(C1CCOCC1)CC2", "category": 0.0}
{"molecule": "Cc1ccc(OCc2ccc3c(c2)CCCN(C2CCOCC2)C3)c(-c2csc(N3CC[C@@]4(C(=O)O)C[C@H]4C3)n2)c1", "category": 0.0}
{"molecule": "Cc1ccc(OCc2ccc3c(c2)CCN(C2COC2)C3)c(-c2cccc(N3CC[C@@]4(C(=O)O)C[C@H]4C3)n2)c1", "category": 0.0}
{"molecule": "COC[C@H]1N(c2nc(-c3cccc(C)c3OCc3ccc4c(c3C)CCN(C3CCOCC3)C4)cs2)C[C@@H]2C[C@@]21C(=O)O", "category": 0.0}
{"molecule": "Cc1ccc(OCc2ccc3c(c2)CCN(CC2COCCO2)C3)c(-c2csc(N3CC[C@@]4(C(=O)O)C[C@H]4C3)n2)c1 (stereo partly shown)", "category": 1.0}

Query: Could you please find out whether CO[C@@H]1CN(c2cccc(-c3cccc(C)c3OCc3ccc4c(c3C)CCN(C)CC4)n2)CC[C@@H]1C(=O)O has pEC50 that meets 8 or exceeds it?
Response: 0.0

Query: Could you please find out whether Cc1ccc(OCc2cc(C)c3c(c2C)CCN(C2CCOCC2)C3)c(-c2csc(N3CC[C@@]4(C(=O)O)C[C@H]4C3)n2)c1 has pEC50 that meets 8 or exceeds it?
Response: 0.0

Query: Could you please find out whether COC[C@@H]1N(c2cccc(-c3cccc(C)c3OCc3cc(C)c4c(c3)CCN(C3CCOCC3)C4)n2)C[C@@H]2C[C@@]21C(=O)O has pEC50 that meets 8 or exceeds it?
Response: 0.0

Query: Could you please find out whether COC[C@H]1N(c2cccc(-c3cc(C)ccc3OCc3ccc4c(c3C)CCN(C3CCOCC3)C4)n2)C[C@@H]2C[C@@]21C(=O)O has pEC50 that meets 8 or exceeds it?
Response: 0.0
